Below are Ki measurements against Cathepsin S (Homo sapiens) drawn from the literature.
Lab note: compare Ki with 5 nM, writing 1 (yes) if less and 0 (no) if equal or more.

Q) I wonder whether `Cc1ccc(C(=O)N[C@@H](CC2(F)CCCC2)C(=O)NC2(C(=O)C(N)=O)CCC2)cn1` has Ki below 5 nM. Can you tell?
A) 1 (yes)

Q) Does this compound meet the criterion Ki < 5 nM? `COC(=O)N[C@@H](CC1(C)CCCC1)C(=O)N[C@]1(C(=O)C(=O)Nc2ccn(C)n2)C[C@@H](F)C1`
A) 1 (yes)

Q) Is it true that Ki reported for `CC1(C[C@H](NC(=O)C(C)(C)F)C(=O)NC2(C(=O)C(N)=O)CC(F)(F)C2)CCCC1` is less than 5 nM?
A) 1 (yes)

Q) Hello, is Ki of the following compound strictly smaller than 5 nM? `Cn1ccc(NC(=O)C(=O)C2(NC(=O)[C@H](CC3CCCCC3)NC(=O)N3CCOCC3)CC(F)(F)C2)n1`
A) 1 (yes)

Q) Identify whether the compound Cn1ccc(NC(=O)C(=O)C2(NC(=O)[C@H](CC3(C)CCCC3)NC(=O)C3CC3)CC(F)C2)n1 (stereo partly drawn) records Ki below 5 nM.
A) 1 (yes)

Q) Hi there! Is Ki for `CC[C@H](NC(=O)O[C@H](C(=O)N1CCOCC1)C1CCCCC1)C(=O)c1nc2ccc(F)cc2o1` below 5 nM, do you know?
A) 1 (yes)

Q) Hello, I'm reviewing records and need to know if Ki of `CCC[C@H](NC(=O)O[C@@H](CC1CCCCC1)C(=O)N1CCCC1)C(=O)c1nc2ccccc2o1` is below 5 nM. Could you check?
A) 1 (yes)

Q) Check if Ki falls below 5 nM for `CCC[C@H](NC(=O)O[C@H](C(=O)N1CCOCC1)C1CCCCC1)C(=O)c1nc2ccccc2o1` .
A) 1 (yes)

Q) Given the entry `O=C(NC1(C(=O)N[C@H]2CCCN(S(=O)(=O)c3ccccn3)CC2=O)CCCCC1)c1cc2ccccc2o1` , would its reported Ki be below 5 nM?
A) 0 (no)

Q) Lab log: compare recorded Ki with 5 nM; is it strictly lower for `C[C@H](NC(=O)O[C@@H](CS(=O)(=O)Cc1ccccc1)C(=O)N1CCOCC1)C(=O)c1nc2ccccc2o1` ?
A) 0 (no)

Q) Decide: Ki of Cn1ccc(NC(=O)C(=O)C2(NC(=O)C(CC3(C)CCC3)NC(=O)OC(C)(C)C)CC(F)C2)n1 (stereo not drawn) strictly below 5 nM?
A) 1 (yes)

* * *

Record: compiled Ki on Cathepsin S (Homo sapiens) from multiple reports.
Express the result in nM but write the number alone.

Q) Hello, please tell me recorded Ki for this one: `Cn1ccc(NC(=O)C(=O)C2(NC(=O)[C@H](CC3(F)CCCC3)NC(=O)C(F)F)CC(F)(F)C2)n1`
A) 3

Q) Specify reported Ki for the compound shown: `CC(=O)N[C@@H](CC(C)(C)C)C(=O)NC1(C(=O)C(=O)Nc2ccn(C)n2)CC(F)(F)C1`
A) 20

Q) Look up Ki of NC(=O)C(=O)C1(NC(=O)[C@H](CC2CCC2)NC(=O)C2CC2(F)F)CCC1 (single isomer, unassigned) and report it.
A) 1.3

Q) Recall and state the measured Ki for `CC1(C[C@H](NC(=O)C2CC2)C(=O)NC2(C(=O)C(N)=O)CCC2)CCCC1` .
A) 0.3

Q) Indicate the recorded Ki value for this compound: `NC(=O)C(=O)C1(NC(=O)[C@H](CC2(F)CCCC2)NC(=O)c2ccccn2)CCC1`
A) 0.77

Q) Name the recorded Ki of the item CC(C)(C)OC(=O)N[C@@H](CC1(F)CCCC1)C(=O)NC1(C(=O)C(=O)NC2CC2)CC(F)C1 (stereo partly drawn) in your answer.
A) 14

Q) Answer with reported Ki of `[2H]C([2H])([2H])C(C(=O)N[C@@H](CC1(F)CCCC1)C(=O)NC1(C(=O)C(=O)Nc2ccn(C)n2)CC(F)(F)C1)(C([2H])([2H])[2H])C([2H])([2H])[2H]`
A) 3

Q) Return Ki for the following compound: `CC(=O)N[C@@H](CC1(C)CCC1)C(=O)NC1(C(=O)C(=O)Nc2ccn(C)n2)CC(F)(F)C1`
A) 3.8

Q) Please list Ki recorded for the compound `CCC(=O)N[C@@H](CC1(C)CCCC1)C(=O)N[C@]1(C(=O)C(=O)Nc2ccn(C)n2)C[C@@H](F)C1`
A) 0.8

Q) Provide Ki value for the following compound: `CC1(C[C@H](NC(=O)OC(C)(C)C)C(=O)NC2(C(=O)C(N)=O)CC2)CCCC1`
A) 2.7

Q) Entry CCOC(=O)NC(CC1(F)CCCC1)C(=O)NC1(C(=O)C(=O)Nc2ccn(C)n2)CC(OC)C1 (stereo not drawn) needs its Ki filled in; supply it.
A) 1.1

Q) Given `CC(C)(C)C[C@H](NC(=O)OC(C)(C)C)C(=O)N[C@]1(C(=O)C(N)=O)C[C@@H](F)C1` , respond with its Ki.
A) 12

* * *

Collected set of pKi measured with Cathepsin S (Homo sapiens) across studies.
Reminder that pKi means the negative base-10 logarithm of the concentration expressed in mol/L.

Q) Name the recorded pKi of the molecule listed here: `O=C(NC1CC1)C(=O)C1(NC(=O)[C@H](CC2(F)CCCC2)NC(=O)c2ccc(O)c(F)c2)CC(F)(F)C1`
A) 9.00

Q) Determine from records and report pKi for `NC(=O)C(=O)C1(NC(=O)[C@H](CC2(F)CCCC2)NC(=O)C2(C(F)(F)F)CCC2)CCC1`
A) 7.51

Q) Please supply the value of reported pKi for the item CCC(C)C(NC(=O)C(Cc1ccccc1)NC(=O)Cc1ccccc1)C(=O)C(=O)NC(Cc1ccccc1)C(=O)NC(C)(C)C(N)=O (stereo not drawn)
A) 8.59

Q) Please supply the value of reported pKi for the item `Cn1ccc(NC(=O)C(=O)C2(NC(=O)[C@H](CC3(F)CCCC3)NC(=O)OC(C)(C)C)CC(F)(F)C2)n1`
A) 9.26

Q) Quick one: give measured pKi for `CCOC(=O)N[C@@H](CC1(F)CCCC1)C(=O)NC1(C(=O)C(=O)NCCCN2CCN(C)CC2)CCC1`
A) 7.66

Q) Tell me measured pKi for `CC1(C[C@H](NC(=O)C(C)(C)C(F)(F)F)C(=O)NC2(C(=O)C(N)=O)CCC2)CCCC1` please.
A) 8.92

Q) Determine its reported pKi: `CC1(C[C@H](NC(=O)N2CCOCC2)C(=O)NC2(C(=O)C(=O)NCCCCl)CCC2)CCCC1`
A) 8.70

Q) Look up and state reported pKi for `N#C[C@H](COCc1ccccc1Cl)NC(=O)O[C@@H](CC1CCCCC1)C(=O)N1CCOCC1`
A) 7.50

Q) For the molecule CCOC(=O)NC(CC(C)(C)C)C(=O)NC1(C(=O)C(=O)Nc2ccn(C)n2)CC(F)C1 (stereo not drawn) , report pKi.
A) 7.96

Q) Using known records, supply pKi for `CC(C)(C)OC(=O)N[C@@H](CC1(F)CCCC1)C(=O)NC1(C(=O)C(N)=O)CC1`
A) 8.43

* * *

Below are Ki measurements against UniProt:P25774 drawn from the literature.

Q) Identify the reported Ki for the following entry. `C[C@@H](CNc1ccc(OC(F)F)cc1)NC(=O)O[C@@H](CC1CCCC1)Cn1cnc2cc(Cl)c(Cl)cc21`
A) < 1000 nM

Q) Identify the reported Ki for the following entry. O=C1C[C@H](NC(=O)[C@H](CC2CC2)NC(=O)C2CC2)C(O)O1 (stereo partly drawn)
A) < 100 nM

Q) Please list Ki recorded for the molecule `CCCC(F)(F)C[C@H](N[C@@H](c1ccc(F)cc1)C(F)(F)F)C(=O)NC1(C#N)CC1`
A) < 20 nM

Q) Respond only with Ki recorded for `CC(C)(C)C[C@H](Nc1nc2ccccc2o1)C(=O)N[C@@H](CO)CN1CCc2cc(F)ccc21`
A) < 100 nM

Q) Give reported Ki value for `CC(C)(C)OC(=O)C[C@@H](CN1CCc2cc(F)ccc21)NC(=O)[C@H](CC1CCCCC1)Nc1nc2ccccc2o1`
A) < 100 nM

Q) Let me know recorded Ki for `Cc1cc(NC[C@H](C)NC(=O)[C@H](CC2CCCCC2)Nc2nc3cccc(Cl)c3o2)no1` , thanks.
A) < 10000 nM

Q) For the molecule `Cn1ccc(NC(=O)C(=O)C2(NC(=O)[C@H](CC3(F)CCCC3)NC(=O)OC3COC3)CCC2)n1` , give its measured Ki value.
A) 2.2 nM

Q) Give Ki for O=C1C[C@H](NC(=O)[C@H](CC2CCCC2)NC(=O)C2CC2)C(O)O1 (stereo partly drawn)
A) < 100 nM

Q) Please look at this molecule and report its Ki: CC(NC(=O)C(Cc1ccccc1)NC(=O)Cc1ccccc1)C(=O)C(=O)NC(CCCNC(=N)N)C(=O)NC(C)(C)C(N)=O (stereo not drawn)
A) 78.1 nM

Q) Provide Ki value for the following molecule: `O=C(N[C@H]1COCC1=O)O[C@@H](CC1CCCCC1)C(=O)N1CCOCC1`
A) 892 nM

Q) Tell me Ki reported for `CC[C@H](NC(=O)O[C@@H](CC1CCCCC1)C(=O)N(C)C)C(=O)c1nc2ccccc2o1`
A) 3.6 nM

Q) Give Ki for the following molecule: `CC(C)(C)C[C@H](Nc1nc2ccccc2o1)C(=O)N[C@@H](COCc1ccccc1)CN1CCc2cc(F)ccc21`
A) < 100 nM

Q) // Input: `CC(C)(C)C[C@@H](Cn1cnc2ccccc21)OC(=O)N[C@@H](CO)CN1CCc2cc(F)ccc21` . Output its Ki only.
A) < 100 nM

Q) Identify Ki associated with the molecule `CC(C)C(=O)N[C@@H](CC1(C)CCCC1)C(=O)NC1(C(=O)C(=O)Nc2ccn(C)n2)CC(F)(F)C1`
A) 1 nM

Q) // fetch Ki given entry CC(C)(C)C(Cn1cnc2cc(Cl)c(Cl)cc21)OC(=O)N[C@@H](CO)CN1CCc2cc(F)ccc21 (mixture of isomers)
A) < 100 nM

Q) Read off the recorded Ki for `CC(C)(C)OC(=O)N[C@@H](CC1(F)CCCC1)C(=O)NC1(C(=O)C(=O)Nc2cc[nH]n2)CCC1`
A) 0.79 nM

Q) Identify measured Ki associated with O=C1C[C@H](NC(=O)[C@H](CC2CCCC2)NC(=O)OC2CCOCC2)C(O)O1 (stereo partly drawn)
A) < 100 nM

Q) Item `C[C@@H](CNc1ccc(OC(F)F)cc1)NC(=O)O[C@@H](CC1CCCC1)Cn1ccc(C(F)(F)F)n1` : provide Ki
A) < 1000 nM

Q) Return value of Ki for input O=C1C[C@H](NC(=O)[C@H](CC2CCCC2)NC(=O)c2ccc(-c3cccc(F)c3)o2)C(O)O1 (stereo partly drawn) , no commentary.
A) < 100 nM

Q) Look up and report measured Ki for this entry: `CC[C@H](NC(=O)O[C@@H](CC1CCCCC1)C(=O)N1CCOCC1)C(=O)c1nc2ccc(C)cc2o1`
A) 1.1 nM

Q) Please report Ki for the following molecule: `Cc1csc(NC(=O)C(=O)C2(NC(=O)[C@H](CC3(C)CCCC3)NC(=O)OC(C)(C)C)CCC2)n1`
A) 30 nM

Q) Using the record for O=C1C[C@H](NC(=O)[C@H](CC2CCCCC2)NC(=O)c2ccc(-c3cccc(F)c3)o2)C(O)O1 (mixture of isomers) , state its measured Ki.
A) < 100 nM

Q) Identify Ki associated with the molecule `NC(=O)C(=O)C1(NC(=O)[C@H](CC2(F)CCCC2)NC(=O)c2ccc(F)cc2F)CCC1`
A) 0.67 nM

Q) Quick one: give measured Ki for O=C1CC(NC(=O)C(CC2CCCC2)NC(=O)c2ccc(-c3cccc(F)c3)o2)C(OC2CCCC2)O1 (stereo not drawn)
A) < 100 nM
